System: M14
assay comment: NCI tumour cell line growth inhibition, 48 h
Active and inactive are the calls of the source. No stated cut-off is given here; in the data, active = GI50 up to about 1.1 µM and inactive = higher.
One label from this list, please: yes = active, no = inactive

Below are worked cases with known answers.
compound=C[N+](C)(C)CC(=O)N/N=C(/Cc1nc2ccc([N+](=O)[O-])cc2nc1O)C(=O)Nc1cc(C(F)(F)F)ccc1Cl discrete_label=no
compound=COP(=O)(OC)C(NC=O)P(=O)(OC)OC discrete_label=no
compound="COc1ccc2c(c1)CCC1=C/C(=N\\NC(N)=O)CCC12C (centres undefined)" discrete_label=no
compound=CC(=NNC(=S)Nc1ccc(C)cc1)c1cccc(C(C)=NNC(=S)Nc2ccc(C)cc2)n1 discrete_label=no
compound=COc1cccc(/N=N/C(=N/NC(=O)c2cc(Cl)ccc2O)c2ccc(N(CCC#N)CCC#N)cc2C)c1 discrete_label=no

QUERY: Each compound tested received a call. Report the one for `CCN(CC)c1ccc2cc(C(=O)Nc3cccc4ccccc34)c(=N)oc2c1` .
RESULT: no

QUERY: Follow-up entry: `O=[N+]([O-])c1cc2ccc1OCc1cccc(n1)COc1ccc(cc1[N+](=O)[O-])/C=N\CCCCCCCC/N=C\2`
RESULT: no

QUERY: Follow-up entry: `CCCCCCCCNC(=O)C1=C(C)NC(C)=C(C(=O)NCCCCCCCC)C1`
RESULT: no

---

System: HCC 2998
assay comment: NCI tumour cell line growth inhibition, 48 h
Calls of active or inactive are those of the source. Cut-off read from the data, not from the text of the source: active = GI50 up to about 1.1 µM and inactive = higher.
quantity name: GI50

Study these solved cases before continuing.
compound="Clc1cccc2c1OCC1C(c3ccccc3)=NN(c3ccccc3)C21 (stereo unspecified)" quantity_name=GI50 recorded_value="> 100 µM (inactive)"
compound="COc1cc(C(O)C(=O)c2cnc3cc([N+](=O)[O-])ccc3n2)ccc1O (stereo unspecified)" quantity_name=GI50 recorded_value="> 100 µM (inactive)"
compound=c1ccc(CN2CCC(Nc3ccccc3)(c3nnnn3Cc3ccccc3)CC2)cc1 quantity_name=GI50 recorded_value="3.01 µM (inactive)"
compound=O=NN(CCCl)C(=O)N[C@H]1CC[C@H](CC(=O)O)CC1 quantity_name=GI50 recorded_value="> 100 µM (inactive)"
compound=CN(CCNC(=O)c1c[nH]c2c1ccc1ccccc12)CCNC(=O)c1c[nH]c2c1ccc1ccccc12 quantity_name=GI50 recorded_value="1.41 µM (inactive)"
compound=COC(=O)c1cc2c3c(c1)Oc1cc(C(=O)OC)cc4c1C3c1c(cc(C(=O)OC)cc1O4)O2 quantity_name=GI50 recorded_value="31.8 µM (inactive)"

QUERY: Recorded GI50 for `C=C(C)[C@H]1C[C@@H]2O[C@@](O)(/C(C)=C\C(=O)/C=C(/C)C[C@H]3OC(=O)[C@@]24O[C@H]34)[C@@H]1O` , please?
RESULT: > 100 µM (inactive)

QUERY: Follow-up entry: CC(C)(C)OC(=O)NCCCCC(N)NC(=O)c1ccccc1 (stereo unspecified)
RESULT: > 100 µM (inactive)

QUERY: Follow-up entry: `O=C1Nc2ccccc2/C1=N/N=C1NCCCCN1`
RESULT: > 100 µM (inactive)

QUERY: Follow-up entry: `CC(=O)Oc1ccc2c(C)cc(=O)oc2c1`
RESULT: > 100 µM (inactive)

---

Reported GI50 is given for each of the following compounds.
Tested on: CCRF-CEM
assay comment: NCI tumour cell line growth inhibition, 48 h
Calls of active or inactive are those of the source. No stated cut-off is given here; in the data, active = GI50 up to about 1.1 µM and inactive = higher.

Study these solved cases before continuing.
compound=NC(=S)N/N=C(/C(=O)Nc1nc2ccc([N+](=O)[O-])cc2s1)C1C(=O)NC(=S)NC1=O recorded_value="> 100 µM (inactive)"
compound="O=c1oc2c(O)c(O)cc3c(=O)oc4c(O)c(O)cc1c4c23 [ELLAGIC ACID]" recorded_value="> 10 µM (inactive)"
compound="SC1=NC2=C(CSC/C2=C\\c2ccc(Cl)cc2)C(c2ccc(Cl)cc2)N1 (centres undefined)" recorded_value="24.7 µM (inactive)"
compound=O=C1NC(=O)C(C(c2ccc([N+](=O)[O-])cc2)C2C(=O)NC(=O)NC2=O)C(=O)N1 recorded_value="62.1 µM (inactive)"
compound=O=C(C/C(=N/O)c1cc(-c2ccccc2)no1)c1ccccc1 recorded_value="> 100 µM (inactive)"

QUERY: Item: `COc1cc(OC)c(C2(c3c(OC(C)C)c(=O)c3=O)SCCCS2)cc1OC` Test system: CCRF-CEM Read-out: GI50 Value: ?
RESULT: > 100 µM (inactive)

QUERY: Follow-up entry: O=[N+]([O-])C1=Cc2cc(Cl)ccc2OC1c1cccc2ccccc12 (centres undefined)
RESULT: 0.191 µM (active)

QUERY: Follow-up entry: `CCC(C)(C)c1ccc(Oc2cccc(C(=O)O)c2)cc1`
RESULT: 28.9 µM (inactive)

QUERY: Follow-up entry: `Cc1ccc(NC(=O)c2cc(S(=O)(=O)Nc3nc4cccnc4[nH]3)c(SSc3cc(Cl)c(C(=O)Nc4ccc(C)cc4)cc3S(=O)(=O)Nc3nc4cccnc4[nH]3)cc2Cl)cc1`
RESULT: > 100 µM (inactive)

---

Test system: CCRF-CEM
assay comment: NCI tumour cell line growth inhibition, 48 h
Activity calls are given as the source filed them. No stated cut-off is given here; in the data, active = GI50 up to about 1.1 µM and inactive = higher.
quantity name: GI50

Study these solved cases before continuing.
compound=C/C(CC(=O)Nc1ccccc1C)=N/NS(=O)(=O)c1ccc(C)cc1 recorded_value="> 100 µM (inactive)"
compound=O=NN(CCCl)C(=O)N[C@H]1CC[C@H](CC(=O)O)CC1 recorded_value="21.1 µM (inactive)"
compound="COc1ccc(C(CC2(c3ccc(OC)cc3)SCCCS2)NC(C)=O)cc1 (stereo unspecified)" recorded_value="21.9 µM (inactive)"
compound="COc1ccc(C2CC(c3ccc(NS(=O)(=O)c4cc([N+](=O)[O-])ccc4C)cc3)=NN2S(=O)(=O)c2cc([N+](=O)[O-])ccc2C)cc1 (stereo unspecified)" recorded_value="65.2 µM (inactive)"
compound=O=C(c1c2c(cc3c1CC1(Cc4cc5c(cc4C1)CCCC5)C3)CCCC2)C(Br)Br recorded_value="1.6 µM (inactive)"

QUERY: Recorded GI50 for NC(=O)OCC(COc1ccc(Cl)cc1)OC(=O)c1ccccc1Cl (stereo unspecified) , please?
RESULT: 22.3 µM (inactive)

QUERY: Follow-up entry: `O=c1c(-c2ccccc2)nnc2n(Cc3ccccc3)c3ccccc3n12`
RESULT: > 100 µM (inactive)

QUERY: Follow-up entry: `CCOP(=O)(OCC)C(F)(F)Cc1cnc(C)c2c1COC(C)(C)O2`
RESULT: > 10 µM (inactive)

QUERY: Follow-up entry: `N#Cc1nc(COCCOCc2ccccc2)oc1N`
RESULT: 30 µM (inactive)

QUERY: Follow-up entry: `COc1ccc(C(=O)/C=C/c2ccc(OCC#N)cc2)cc1OC`
RESULT: 3.21 µM (inactive)

QUERY: Follow-up entry: `COc1ccc(C2=C(N)c3ccccc3C2=O)cc1`
RESULT: > 100 µM (inactive)

QUERY: Follow-up entry: C=C1C2CC(OC(C)=O)C3(C)C(c4ccoc4)OC(=O)[C@@H](O)[C@]13OC1C[C@H](OC(C)=O)C(C)(C)[C@H](C(O)C(=O)OC)[C@]12C (stereo partly specified)
RESULT: > 100 µM (inactive)

QUERY: Follow-up entry: CC(C)C(NC(=O)Oc1ccccc1)C(=O)NC1c2c(Br)sc(Br)c2C(=O)C1O (stereo unspecified)
RESULT: 7.62 µM (inactive)

QUERY: Follow-up entry: `C/C(CC(=O)Nc1cc(C)ccc1C)=N\NC(=O)c1ccncc1`
RESULT: > 100 µM (inactive)

QUERY: Follow-up entry: `c1ccc(CN2CCC(Nc3ccccc3)(c3nnnn3Cc3ccccc3)CC2)cc1`
RESULT: 20 µM (inactive)

QUERY: Follow-up entry: O=c1[nH]c2cc([N+](=O)[O-])ccc2nc1/C(=N\NO)C(O)c1ccc([N+](=O)[O-])cc1 (stereo unspecified)
RESULT: 66.2 µM (inactive)

QUERY: Follow-up entry: `CCN(CC)c1ccc2cc(C(=O)Nc3cccc4ccccc34)c(=N)oc2c1`
RESULT: > 100 µM (inactive)

QUERY: Follow-up entry: COC(=O)C1(Cc2ccc(C)cc2)Cc2c(C)cccc2C1=O (stereo unspecified)
RESULT: 82 µM (inactive)

QUERY: Follow-up entry: `O=C(CC(=O)c1cccc([N+](=O)[O-])c1)C(=O)Nc1nc([N+](=O)[O-])cs1`
RESULT: 47.8 µM (inactive)

QUERY: Follow-up entry: CC(C)C1CC=NN1C(=O)OC(C)(C)C (stereo unspecified)
RESULT: > 100 µM (inactive)

QUERY: Follow-up entry: O=c1cccc2n1CC1CNC[C@H]2C1 [CYTISINICLINE]
RESULT: > 100 µM (inactive)
